pKi listing for selected compounds.
system_under_test: α5β3γ2 GABAA receptors (Homo sapiens, UniProt P18507+P31644)
Sequence (P28472 26-473 partner, one chain of several): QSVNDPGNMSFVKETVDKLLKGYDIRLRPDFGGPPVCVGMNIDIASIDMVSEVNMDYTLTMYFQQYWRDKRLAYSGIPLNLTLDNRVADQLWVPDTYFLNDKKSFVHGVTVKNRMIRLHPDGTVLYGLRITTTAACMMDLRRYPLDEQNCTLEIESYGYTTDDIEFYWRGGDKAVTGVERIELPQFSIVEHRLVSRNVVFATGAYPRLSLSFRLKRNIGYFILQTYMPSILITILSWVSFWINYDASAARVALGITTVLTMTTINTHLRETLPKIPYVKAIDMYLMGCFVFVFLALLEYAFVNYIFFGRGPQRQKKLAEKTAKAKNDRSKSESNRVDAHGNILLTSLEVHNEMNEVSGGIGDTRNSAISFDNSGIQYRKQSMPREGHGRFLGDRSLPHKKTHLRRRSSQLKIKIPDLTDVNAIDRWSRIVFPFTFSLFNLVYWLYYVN
test: [3H]Ro15-1788 binding, membranes of Ltk cells stably expressing α5β3γ2 GABAA receptors
experimental_conditions: ranges; inhibition of [3H]Ro15-1788 binding
pKi: −log10 of the molar value.
outcome_measure: pKi

{"chemical_structure": "Clc1ccc2c(c1)-n1nncc1Cc1c(-c3noc(-c4ccccc4)n3)ncn1-2", "system_under_test": "α5β3γ2 GABAA receptors (Homo sapiens, UniProt P18507+P31644)", "reported_value": "> 7.00"}
{"chemical_structure": "COCc1nnn2c1Cc1c(C#Cc3ccc(OC)cn3)ncn1-c1ccc(Cl)cc1-2", "system_under_test": "α5β3γ2 GABAA receptors (Homo sapiens, UniProt P18507+P31644)", "reported_value": "> 7.00"}
{"chemical_structure": "COc1ccc2c(c1)-n1nncc1Cc1c(C3=NC[C@H](c4ccccc4)O3)ncn1-2", "system_under_test": "α5β3γ2 GABAA receptors (Homo sapiens, UniProt P18507+P31644)", "reported_value": "> 7.00"}
{"chemical_structure": "COCc1nnc2n1Cc1c(C#Cc3ccc(C#N)cn3)ncn1-c1ccc(Cl)cc1-2", "system_under_test": "α5β3γ2 GABAA receptors (Homo sapiens, UniProt P18507+P31644)", "reported_value": "6.00 to 7.00"}

----------
system_under_test: GABAA receptors (α5β2γ2) (Homo sapiens, UniProt P18507+P31644)
Construct: expressed in transfected cells
Sequence (P31644 32-462): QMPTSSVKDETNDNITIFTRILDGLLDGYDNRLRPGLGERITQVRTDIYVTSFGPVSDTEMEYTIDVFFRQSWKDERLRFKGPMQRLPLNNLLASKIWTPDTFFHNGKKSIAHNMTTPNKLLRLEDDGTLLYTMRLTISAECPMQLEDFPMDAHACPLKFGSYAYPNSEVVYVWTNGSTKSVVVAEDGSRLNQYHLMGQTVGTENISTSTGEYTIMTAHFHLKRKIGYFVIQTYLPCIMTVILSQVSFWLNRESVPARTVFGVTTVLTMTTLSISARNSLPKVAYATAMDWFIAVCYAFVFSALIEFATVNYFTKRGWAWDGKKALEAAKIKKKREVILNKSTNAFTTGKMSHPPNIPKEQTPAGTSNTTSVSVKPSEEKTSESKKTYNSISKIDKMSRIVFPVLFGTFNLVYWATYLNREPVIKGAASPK
Sequence (P47870 25-512, further chain): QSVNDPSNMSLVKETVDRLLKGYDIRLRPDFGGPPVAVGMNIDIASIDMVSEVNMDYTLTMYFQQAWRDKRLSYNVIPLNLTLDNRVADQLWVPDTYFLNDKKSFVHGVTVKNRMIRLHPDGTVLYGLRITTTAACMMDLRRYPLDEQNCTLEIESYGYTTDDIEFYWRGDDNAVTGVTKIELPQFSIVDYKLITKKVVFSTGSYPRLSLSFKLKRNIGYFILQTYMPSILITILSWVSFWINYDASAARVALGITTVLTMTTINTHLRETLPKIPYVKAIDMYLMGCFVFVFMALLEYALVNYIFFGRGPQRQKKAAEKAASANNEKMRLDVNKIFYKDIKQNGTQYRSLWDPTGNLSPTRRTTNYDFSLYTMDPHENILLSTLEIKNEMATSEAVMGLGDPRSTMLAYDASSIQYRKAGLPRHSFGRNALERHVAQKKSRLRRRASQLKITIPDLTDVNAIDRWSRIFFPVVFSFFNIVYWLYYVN
Sequence (P18507 40-475): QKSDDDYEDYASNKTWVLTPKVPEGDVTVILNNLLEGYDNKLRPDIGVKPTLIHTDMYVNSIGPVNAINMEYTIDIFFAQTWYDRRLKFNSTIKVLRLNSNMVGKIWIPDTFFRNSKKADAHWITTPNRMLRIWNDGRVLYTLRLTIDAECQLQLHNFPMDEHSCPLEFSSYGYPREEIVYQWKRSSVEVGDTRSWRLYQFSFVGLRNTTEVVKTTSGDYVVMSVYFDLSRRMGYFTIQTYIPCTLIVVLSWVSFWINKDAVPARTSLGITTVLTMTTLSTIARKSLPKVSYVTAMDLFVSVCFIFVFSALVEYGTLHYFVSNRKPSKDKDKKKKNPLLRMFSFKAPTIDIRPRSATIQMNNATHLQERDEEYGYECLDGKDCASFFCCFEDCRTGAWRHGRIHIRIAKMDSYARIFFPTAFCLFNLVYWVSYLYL
test: Positive allosteric modulator activity: potentiation of EC20 GABA current in oocytes
Type: cell-based
experimental_conditions: read-out: GABA α5 Functional Data (potentiation of EC20 GABA); @ 100 nM; ranges
Each entry below carries its reported activation at 0.1 µM.

{"chemical_structure": "FC(F)(F)Oc1ccc2c(c1)-n1nncc1Cc1c(-c3ncco3)ncn1-2", "activation at 0.1 µM": "5 to 20%"}
{"chemical_structure": "COc1ccc(C#Cc2ncn3c2Cc2cnnn2-c2cc(OC)ccc2-3)nc1", "activation at 0.1 µM": "5 to 20%"}
{"chemical_structure": "Brc1ccc2c(c1)-n1nncc1Cc1c(C3=N[C@H](c4ccccc4)CO3)ncn1-2", "activation at 0.1 µM": "20 to 50%"}
{"chemical_structure": "COc1ccc2c(c1)-n1nncc1Cc1c(C#Cc3cnc(C)[nH]3)ncn1-2", "activation at 0.1 µM": "> 50%"}
{"chemical_structure": "COc1ccc(C#Cc2ncn3c2Cn2c(COC(F)F)nnc2-c2cc(Cl)ccc2-3)cn1", "activation at 0.1 µM": "5 to 20%"}
{"chemical_structure": "COCc1nnc2n1Cc1c(C#Cc3ccn4ccnc4c3)ncn1-c1ccc(OC)cc1-2", "activation at 0.1 µM": "> 50%"}
{"chemical_structure": "COCc1nnc2n1Cc1c(C#Cc3ccc(C)cn3)ncn1-c1ccc(OC)cc1-2", "activation at 0.1 µM": "20 to 50%"}
{"chemical_structure": "COCc1nnc2n1Cc1c(C#Cc3ccn(C)n3)ncn1-c1ccc(Cl)cc1-2", "activation at 0.1 µM": "> 50%"}

----------
system_under_test: GABAA receptors (α5β2γ2) (Homo sapiens, UniProt P18507+P31644)
Construct: expressed in transfected cells
test: Positive allosteric modulator activity: potentiation of EC20 GABA current in oocytes
Format: cell-based
experimental_conditions: read-out: GABA α5 Functional Data (potentiation of EC20 GABA); @ 100 nM; ranges
outcome_measure: activation at 0.1 µM

{"molecule": "CC(C)C#Cc1ccc2c(c1)-n1nncc1Cc1c(Br)ncn1-2", "reported_value": "5 to 20%"}
{"molecule": "FC(F)(F)Oc1ccc2c(c1)-n1nncc1Cc1c(C3=N[C@H](c4ccccc4)CO3)ncn1-2", "reported_value": "5 to 20%"}
{"molecule": "Cc1noc(-c2ncn3c2Cc2c(Cc4cccc(F)c4)nnn2-c2cc(OC(F)(F)F)ccc2-3)n1", "reported_value": "5 to 20%"}
{"molecule": "COCc1nnc2n1Cc1c(C#Cc3nc(C)cs3)ncn1-c1ccc(Cl)cc1-2", "reported_value": "> 50%"}
{"molecule": "COCc1nnc2n1Cc1c(C#Cc3cncc(C)c3)ncn1-c1ccc(Cl)cc1-2", "reported_value": "5 to 20%"}
{"molecule": "Fc1ccc([C@@H]2COC(c3ncn4c3Cc3cnnn3-c3cc(Cl)ccc3-4)=N2)cc1", "reported_value": "5 to 20%"}
{"molecule": "Cc1noc(-c2ncn3c2Cc2cnnn2-c2cc(Br)ccc2-3)n1", "reported_value": "5 to 20%"}
{"molecule": "Clc1ccc2c(c1)-n1nncc1Cc1c(C3=NCC(c4ccccn4)O3)ncn1-2 (centres unmarked)", "reported_value": "20 to 50%"}
